The reported measurements were obtained from ChEMBL document CHEMBL1156168.

system: MT2; assay: Cytotoxicity against human MT2 cells by MTT assay; type: cell-based; details: mt2
Measured CC50 values are reported for all entries that follow.

OCc1ccc(Nc2ncc(Cc3c(F)cccc3F)o2)cc1 | > 100 µM

In: Data request, read-out CC50, for Cc1cc(C#N)cc(C)c1Oc1nc(Nc2ccc(C#N)cc2)nc(N)c1Br
Out: > 0.1 µM

In: Param item = CSCc1ccc(Nc2ncc(Cc3c(F)cccc3F)o2)cc1 ; retrieve measured CC50.
Out: > 100 µM

In: What value of CC50 has been recorded for this entry: Clc1cccc(Cl)c1Cc1nnc(Nc2ccc(COCc3ccsc3)cc2)o1
Out: > 100 µM

In: Please give the measured CC50 for this molecule: Fc1cccc(F)c1Cc1cnc(Nc2ccc(COc3ccncc3)cc2)o1
Out: > 100 µM
